This listing pairs compounds with measured MIC.
Target: Quinolone resistance protein NorA (Staphylococcus aureus) (UniProt P0A0J7)
Experiment: Inhibition of NorA efflux pump in NorA knockout Staphylococcus aureus K1758 assessed as drug level required for two fold potentiation of berberine MIC at 1.56 to 100 ug/mL after 20 hrs by serial dilution method
Observable: MIC (µM)

INSERT INTO results (compound_structure_string, measurement_target, measurement_unit, reported) VALUES
  ('COC(=O)c1cccc(-c2cc3ccccc3[nH]2)c1', 'Quinolone resistance protein NorA (Staphylococcus aureus) (UniProt P0A0J7)', 'µM', 40),
  ('COC(=O)c1cccc(-c2cc3cc([N+](=O)[O-])ccc3[nH]2)c1', 'Quinolone resistance protein NorA (Staphylococcus aureus) (UniProt P0A0J7)', 'µM', 0.51),
  ('O=[N+]([O-])c1ccc2[nH]c(-c3ccccc3)cc2c1', 'Quinolone resistance protein NorA (Staphylococcus aureus) (UniProt P0A0J7)', 'µM', 0.63),
  ('O=[N+]([O-])c1ccc2[nH]c(-c3ccc(CO)cc3)cc2c1', 'Quinolone resistance protein NorA (Staphylococcus aureus) (UniProt P0A0J7)', 'µM', 5),
  ('O=[N+]([O-])c1ccc2[nH]c(-c3cccc(CO)c3)cc2c1', 'Quinolone resistance protein NorA (Staphylococcus aureus) (UniProt P0A0J7)', 'µM', 9),
  ('O=[N+]([O-])c1ccc2[nH]c(-c3ccccc3CO)cc2c1', 'Quinolone resistance protein NorA (Staphylococcus aureus) (UniProt P0A0J7)', 'µM', 24);

---

Measured log10 of MIC, listed per entry.
Target: Quinolone resistance protein NorA (Staphylococcus aureus) (UniProt P0A0J7)
Experiment: Inhibition of NorA efflux pump in Staphylococcus aureus K2378 overexpressing NorA assessed as drug level required for two fold potentiation of berberine MIC at 1.56 to 100 ug/mL after 20 hrs by serial dilution method
Observable: log10 of MIC (log10 of the value in µM)

INSERT INTO measurements (compound_structure_string, reported) VALUES
  ('OCc1ccc(-c2cc3ccccc3[nH]2)cc1', 1.65),
  ('O=[N+]([O-])c1ccc2[nH]c(-c3cccc(CO)c3)cc2c1', 0.95),
  ('O=[N+]([O-])c1ccc2[nH]c(-c3ccccc3)cc2c1', 0.11),
  ('COC(=O)c1cccc(-c2cc3ccccc3[nH]2)c1', 1.00),
  ('OCc1ccccc1-c1cc2ccccc2[nH]1', 1.65),
  ('OCc1cccc(-c2cc3ccccc3[nH]2)c1', 1.65),
  ('COC(=O)c1ccc(-c2cc3ccccc3[nH]2)cc1', 1.60),
  ('O=[N+]([O-])c1ccc2[nH]c(-c3ccccc3CO)cc2c1', 1.67),
  ('O=[N+]([O-])c1ccc2[nH]c(-c3ccc(CO)cc3)cc2c1', 0.30),
  ('N#Cc1ccc2[nH]c(-c3ccccc3)cc2c1', 0.85),
  ('COC(=O)c1ccccc1-c1cc2ccccc2[nH]1', 1.30),
  ('c1ccc(-c2cc3ccccc3[nH]2)cc1', 2.41);

---

Target: Quinolone resistance protein NorA (Staphylococcus aureus)
Experiment: Inhibition of NorA efflux pump in wild type Staphylococcus aureus 8325-4 assessed as drug level required for two fold potentiation of berberine MIC at 1.56 to 100 ug/mL after 20 hrs by serial dilution method
Observable: log10(MIC) (log10 of the value in µM)

INSERT INTO results (compound_structure_string, reported) VALUES
  ('COC(=O)c1ccccc1-c1cc2ccccc2[nH]1', 1.30),
  ('O=[N+]([O-])c1ccc2[nH]c(-c3ccc(CO)cc3)cc2c1', 0.30),
  ('COC(=O)c1ccc(-c2cc3cc([N+](=O)[O-])ccc3[nH]2)cc1', 1.23),
  ('OCc1ccccc1-c1cc2ccccc2[nH]1', 1.65),
  ('COC(=O)c1ccc(-c2cc3ccccc3[nH]2)cc1', 1.30),
  ('COC(=O)c1cccc(-c2cc3cc([N+](=O)[O-])ccc3[nH]2)c1', 0.00),
  ('O=[N+]([O-])c1ccc2[nH]c(-c3cccc(CO)c3)cc2c1', 0.70),
  ('N#Cc1ccc2[nH]c(-c3ccccc3)cc2c1', 0.56),
  ('OCc1cccc(-c2cc3ccccc3[nH]2)c1', 1.65);
